Target: Prothrombin (Homo sapiens, UniProt P00734)
pIC50: −log10 of the molar value.
property: pIC50

[[record]]
smiles_input = "N=C(N)c1cccc(-c2cccc([C@H](CCCNc3ccncc3)C(=O)O)c2)c1"
property = "pIC50"
val = "< 4.00"


====

Molecular target: Coagulation factor X (Homo sapiens, UniProt P00742)
Sequence (P00742 41-179 limits assumed): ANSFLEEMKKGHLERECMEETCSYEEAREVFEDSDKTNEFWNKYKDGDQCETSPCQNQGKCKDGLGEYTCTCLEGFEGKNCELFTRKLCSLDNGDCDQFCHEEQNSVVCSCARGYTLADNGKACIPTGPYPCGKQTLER
Sequence (P00742 235-488 limits assumed): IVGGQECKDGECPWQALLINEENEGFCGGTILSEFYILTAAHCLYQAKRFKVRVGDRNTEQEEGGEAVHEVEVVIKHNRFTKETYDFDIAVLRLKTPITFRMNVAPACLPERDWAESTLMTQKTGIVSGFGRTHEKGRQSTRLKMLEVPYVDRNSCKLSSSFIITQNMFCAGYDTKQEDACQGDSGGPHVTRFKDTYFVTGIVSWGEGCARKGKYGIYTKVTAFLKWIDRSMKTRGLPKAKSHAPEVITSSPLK
pKi: −log10 of the molar value.
property: pKi

[[record]]
compound = "CC1CNc2c(cccc2S(=O)(=O)N[C@@H](CCCN=C(N)N)C(=O)N2CC[C@@H](C)CC2C(=O)O)C1 (stereo partly specified)"
val = 3.68

